- target or test system: Neurogenic locus notch homolog protein 3 (Homo sapiens) (UniProt Q9UM47)
- Sequence (Q9UM47 whole entry, looked up): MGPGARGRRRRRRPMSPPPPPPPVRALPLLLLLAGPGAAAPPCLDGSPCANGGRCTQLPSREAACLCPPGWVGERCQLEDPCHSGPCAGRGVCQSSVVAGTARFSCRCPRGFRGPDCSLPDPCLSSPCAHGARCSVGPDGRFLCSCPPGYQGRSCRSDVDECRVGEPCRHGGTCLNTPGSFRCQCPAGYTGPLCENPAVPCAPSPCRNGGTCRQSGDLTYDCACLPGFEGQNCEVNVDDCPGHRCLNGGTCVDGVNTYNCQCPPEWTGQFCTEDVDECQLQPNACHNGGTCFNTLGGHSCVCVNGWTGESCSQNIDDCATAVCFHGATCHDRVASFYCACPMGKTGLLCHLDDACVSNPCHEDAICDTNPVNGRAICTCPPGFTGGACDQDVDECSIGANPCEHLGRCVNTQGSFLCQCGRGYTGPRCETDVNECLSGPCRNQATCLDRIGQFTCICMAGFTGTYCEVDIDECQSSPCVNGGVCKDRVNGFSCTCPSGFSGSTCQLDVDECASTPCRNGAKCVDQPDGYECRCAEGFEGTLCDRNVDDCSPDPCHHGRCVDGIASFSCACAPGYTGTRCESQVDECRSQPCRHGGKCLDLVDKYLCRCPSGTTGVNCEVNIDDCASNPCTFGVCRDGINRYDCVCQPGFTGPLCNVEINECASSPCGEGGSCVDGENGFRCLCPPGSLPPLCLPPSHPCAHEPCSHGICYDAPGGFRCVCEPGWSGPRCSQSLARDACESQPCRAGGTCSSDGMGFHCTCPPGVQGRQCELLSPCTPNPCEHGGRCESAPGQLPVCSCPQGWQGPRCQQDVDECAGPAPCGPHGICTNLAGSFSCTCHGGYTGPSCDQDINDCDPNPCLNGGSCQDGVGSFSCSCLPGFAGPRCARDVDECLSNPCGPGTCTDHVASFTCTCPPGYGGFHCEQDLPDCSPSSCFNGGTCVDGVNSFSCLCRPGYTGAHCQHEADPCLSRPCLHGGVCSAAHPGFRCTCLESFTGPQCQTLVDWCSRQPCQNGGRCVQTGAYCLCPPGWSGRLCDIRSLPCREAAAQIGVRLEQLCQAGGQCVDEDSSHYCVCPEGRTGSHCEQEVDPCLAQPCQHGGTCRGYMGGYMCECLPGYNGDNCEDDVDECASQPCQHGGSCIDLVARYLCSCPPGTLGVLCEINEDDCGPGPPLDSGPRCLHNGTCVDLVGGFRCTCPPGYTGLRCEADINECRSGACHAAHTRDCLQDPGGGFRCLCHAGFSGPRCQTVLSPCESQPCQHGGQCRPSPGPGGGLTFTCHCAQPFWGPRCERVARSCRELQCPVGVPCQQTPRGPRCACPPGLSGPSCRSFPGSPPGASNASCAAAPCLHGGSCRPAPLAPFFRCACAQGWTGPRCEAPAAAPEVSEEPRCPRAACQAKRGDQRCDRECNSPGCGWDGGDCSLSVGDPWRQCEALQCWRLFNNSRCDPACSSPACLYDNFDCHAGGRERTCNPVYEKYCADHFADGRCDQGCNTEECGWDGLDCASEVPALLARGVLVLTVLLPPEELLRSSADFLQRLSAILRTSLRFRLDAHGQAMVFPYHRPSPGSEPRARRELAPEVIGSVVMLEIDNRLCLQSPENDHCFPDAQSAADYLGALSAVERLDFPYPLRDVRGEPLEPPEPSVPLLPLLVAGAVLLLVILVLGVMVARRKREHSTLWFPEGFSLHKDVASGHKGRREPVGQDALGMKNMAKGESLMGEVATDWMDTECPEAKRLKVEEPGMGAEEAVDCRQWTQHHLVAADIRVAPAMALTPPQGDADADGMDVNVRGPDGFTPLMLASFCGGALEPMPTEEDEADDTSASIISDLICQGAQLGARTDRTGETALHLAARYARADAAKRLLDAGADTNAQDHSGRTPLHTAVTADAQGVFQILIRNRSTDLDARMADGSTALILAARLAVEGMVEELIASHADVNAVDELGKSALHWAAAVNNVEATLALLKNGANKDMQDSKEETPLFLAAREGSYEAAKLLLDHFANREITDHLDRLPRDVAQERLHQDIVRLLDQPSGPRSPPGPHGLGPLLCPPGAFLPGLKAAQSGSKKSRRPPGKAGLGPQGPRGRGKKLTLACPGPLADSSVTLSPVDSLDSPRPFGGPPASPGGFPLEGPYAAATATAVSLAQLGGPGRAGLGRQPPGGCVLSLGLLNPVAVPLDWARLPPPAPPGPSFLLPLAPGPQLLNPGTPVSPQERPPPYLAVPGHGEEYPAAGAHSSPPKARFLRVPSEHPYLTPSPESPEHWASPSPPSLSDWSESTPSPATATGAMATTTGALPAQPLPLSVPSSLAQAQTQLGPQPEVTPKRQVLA
- assay overview: small molecules binding NOTCH3 protein – biochemical, 635/667 nm fluorescence, primary screen (AID 1096)
- test settings: small-molecule microarray, 635 nm fluorescence, higher = more signal
Record form. Attribute: composite z-score. Fill in for each entry.

The examples below pair each entry with its known result.
| compound | reported endpoint | obs value |
| --- | --- | --- |
| CO[C@H]1O[C@H](CO)[C@@H](OC(=O)Nc2ccccc2)[C@H](OC(=O)c2cc3ccccc3[nH]2)[C@H]1OC(=O)c1cc2ccccc2[nH]1 | composite z-score | 0.196 |
| CC(C)[Si]1(C(C)C)OCc2cc(-c3ccc(-c4ccc(Cl)c(Cl)c4)o3)nc(-c3ccccc3)c21 | composite z-score | -0.444 |
| NCCCCCNC(=O)[C@H]1C[C@H]2C(=O)N3CCC[C@H]3C(=O)N2[C@H]1c1cccc(OCCO)c1 | composite z-score | 0.0389 |
| COc1ccc(C#Cc2ccc3c(c2)[C@]2(C(=O)N3)[C@H](c3ccc(O)cc3)N3[C@H](c4ccccc4)[C@H](c4ccccc4)OC(=O)[C@H]3[C@@H]2C(=O)Nc2nc3ccccc3s2)cc1 | composite z-score | 1.05 |
| C=C(C(=O)CC[C@H](OC(=O)c1ccccc1-c1ccccc1C(=O)O)c1cccc(OCCO)c1)C(C)C | composite z-score | 0.324 |
| CCCCCN1CC=CC23O[C@@H]4/C=C\CCC(C)OC(=O)C4[C@H]2C(=O)N(C(CO)C(C)C)[C@@H]3C1=O (some centres not stated) | composite z-score | 0.165 |

Continue with the compound presented below.
Form field: composite z-score recorded for `CCOC(=O)C1=C[C@@H](C(C)C)N(S(=O)(=O)c2ccc(C)cc2)[C@H]1c1ccc(C(F)(F)F)cc1` with Neurogenic locus notch homolog protein 3 (Homo sapiens) (UniProt Q9UM47) (enter value) 1.05

---

- assay overview: optical density shifts of acrAB sulA E. coli – strain DRC41, OD650, 48 h, E. coli filamentation inducer project, primary screen (AID 1152);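 also: E. coli MC1000 strain DRC41 lacking acrAB efflux pump and sulA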
- test settings: higher = more signal, called active from +8 up or from −8 down
reported endpoint: z-score
Answers are plain numbers.

The examples below pair each entry with its known result.
| compound | z-score |
| --- | --- |
| O=C1CS(=O)(=O)C(c2cccc([N+](=O)[O-])c2)N1c1ccccc1 (centres undefined) | 2.48 |
| O=C1C2C=CC(C(O)C3CC=CCC3)N(Nc3ccccc3)C2C(=O)N1c1ccccc1 (centres undefined) | -1.5 |
| CCOC(=O)C[C@H]1[C@H](OC(=O)c2cc3ccccc3oc2=O)[C@@H](NC(=O)c2ccccc2)c2cc(OCCCO)ccc2N1C(=O)c1ccccc1 | 0.0768 |

Continue with the compound presented below.
Please look up its z-score: `CC(=O)NCCCC[C@@H]1NC(=O)[C@@H]2C[C@H](C(=O)NCCCCCN)[C@H](c3cccc(OCCO)c3)N2C1=O` 2.26

---

- assay overview: plasmodial surface anion channel blockers, osmotic lysis – cell-based, P. falciparum Indochina, OD700, 2 h, primary screen (AID 1155);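 also: lysis reports solute entry through the parasite surface anion channel PSAC; channel blockers reduce lysis of infected cells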
- test settings: P. falciparum Indochina infected erythrocytes, higher = more signal, called active from +8 up or from −8 down
Record form. Attribute: z-score. Fill in for each entry.
Give bare numbers.

| molecule | z-score |
| --- | --- |
| C=CC[C@@H](OC(=O)Nc1ccc(OC)cc1)c1ccc(O)c(F)c1 | -0.0384 |
| COC(=O)[C@@H]1N=C(c2ccc(OCCCO)cc2)O[C@@H]1c1ccccc1 | 12.5 |
| CC1CC/C=C\[C@H]2OC34C=CCN(C(C)(C)C)C(=O)[C@H]3N(CCCCCO)C(=O)[C@@H]4C2C(=O)O1 (some centres not stated) | 0.437 |
| CCOC(=O)C[C@H]1[C@H](OC(=O)c2ccc(C(=O)c3ccccc3)cc2)[C@@H](NC(=O)CC(C)C)c2cc(OCCCO)ccc2N1C(=O)c1ccccc1 | 0.966 |
| CCOC(=O)C1=CC[C@@H](c2ccccc2)N(S(=O)(=O)c2ccc(C)cc2)[C@H]1c1ccccc1 | 0.945 |

// input: 5 molecules below; output: z-score for each
1. COCC(=C=CC[C@H](O)c1ccc(CO)o1)CCO
2. O=C1O[C@@H](c2ccccc2)[C@@H](c2ccccc2)N2[C@@H](c3ccc(O)cc3)[C@]3(C(=O)Nc4ccc(C#CCCO)cc43)[C@@H](C(=O)N3CCN(c4ncccn4)CC3)[C@H]12
3. COCCOC(=O)N1C(=O)[C@@]2(c3cc(C#CCCO)ccc31)[C@H](C(=O)Nc1nc3ccccc3s1)[C@H]1C(=O)O[C@H](c3ccccc3)[C@H](c3ccccc3)N1[C@@H]2c1ccc(O)cc1
4. C[N+](C)(C)CCCCCCNC(=O)[C@@H]1C[C@@H]2C(=O)N3CCC[C@H]3C(=O)N2[C@@H]1c1ccc(O)cc1
5. C#CCN([C@@H](Cc1ccccc1)C(=O)OC)[C@@H](/C=C/C1CC1)[C@H](O)Cc1ccccc1

0.0508
1.01
0.523
-0.15
0.443
